- Test system: Mycobacterium tuberculosis Erdman (autoluminescent)
- runDescription: Einf, fitted maximum growth inhibition of combination (fraction); higher = stronger maximal inhibition
- studyConditions: in vitro model: butyrate; time point: constant (~7 days, model-specific)
observationType: Einf
Respond numerically, and do not add a unit to the figure.

query: Can you share its Einf? I mean this compound: CO[C@H]1/C=C/O[C@@]2(C)Oc3c(C)c(O)c4c(O)c(c(/C=N/N5CCN(C6CCCC6)CC5)c(O)c4c3C2=O)NC(=O)/C(C)=C\C=C\[C@H](C)[C@H](O)[C@@H](C)[C@@H](O)[C@@H](C)[C@H](OC(C)=O)[C@@H]1C [rifapentine] + CO[C@H]1/C=C/O[C@@]2(C)Oc3c(C)c(O)c4c(O)c(c(/C=N/N5CCN(C)CC5)c(O)c4c3C2=O)NC(=O)/C(C)=C\C=C\[C@H](C)[C@H](O)[C@@H](C)[C@@H](O)[C@@H](C)[C@H](OC(C)=O)[C@@H]1C
result: 0.887

* * *

- System: Mycobacterium tuberculosis Erdman (autoluminescent)
- runDescription: GRinf, maximum normalised growth rate inhibition (three-drug combination) (unitless (-1 to 1)); higher = less effect (negative = killing)
- studyConditions: in vitro model: cholesterol-high 0.2 mM; time point: constant (~7 days, model-specific)
Recorded GRinf for the following molecules
The reply should be a number, written without any unit.

Completed entries (count: 10):
CC(=O)NC[C@H]1CN(c2ccc(N3CCOCC3)c(F)c2)C(=O)O1 [linezolid] + O=[N+]([O-])c1cn2c(n1)OC[C@@H](OCc1ccc(OC(F)(F)F)cc1)C2 [pretomanid] + CO[C@H]1/C=C/O[C@@]2(C)Oc3c(C)c(O)c4c(O)c(c(/C=N/N5CCN(C6CCCC6)CC5)c(O)c4c3C2=O)NC(=O)/C(C)=C\C=C\[C@H](C)[C@H](O)[C@@H](C)[C@@H](O)[C@@H](C)[C@H](OC(C)=O)[C@@H]1C [rifapentine] ... -0.159
CC(=O)NC[C@H]1CN(c2ccc(N3CCOCC3)c(F)c2)C(=O)O1 [linezolid] + O=[N+]([O-])c1cn2c(n1)OC[C@@H](OCc1ccc(OC(F)(F)F)cc1)C2 [pretomanid] + CO[C@H]1/C=C/O[C@@]2(C)Oc3c(C)c(O)c4c(O)c(c(/C=N/N5CCN(C)CC5)c(O)c4c3C2=O)NC(=O)/C(C)=C\C=C\[C@H](C)[C@H](O)[C@@H](C)[C@@H](O)[C@@H](C)[C@H](OC(C)=O)[C@@H]1C [rifampicin] ... -0.118
CC(C)/N=c1\cc2n(-c3ccc(Cl)cc3)c3ccccc3nc-2cc1Nc1ccc(Cl)cc1 [clofazimine] + CC[C@@H](CO)NCCN[C@@H](CC)CO [ethambutol] + NC(=O)c1cnccn1 [pyrazinamide] ... -0.718
COc1nc2ccc(Br)cc2cc1[C@@H](c1ccccc1)[C@@](O)(CCN(C)C)c1cccc2ccccc12 [bedaquiline] + NNC(=O)c1ccncc1 [isoniazid] + O=[N+]([O-])c1cn2c(n1)OC[C@@H](OCc1ccc(OC(F)(F)F)cc1)C2 [pretomanid] ... -0.196
COc1nc2ccc(Br)cc2cc1[C@@H](c1ccccc1)[C@@](O)(CCN(C)C)c1cccc2ccccc12 [bedaquiline] + CC[C@@H](CO)NCCN[C@@H](CC)CO [ethambutol] + NNC(=O)c1ccncc1 [isoniazid] ... -0.751
CC(C)/N=c1\cc2n(-c3ccc(Cl)cc3)c3ccccc3nc-2cc1Nc1ccc(Cl)cc1 [clofazimine] + CC(=O)NC[C@H]1CN(c2ccc(N3CCOCC3)c(F)c2)C(=O)O1 [linezolid] + O=[N+]([O-])c1cn2c(n1)OC[C@@H](OCc1ccc(OC(F)(F)F)cc1)C2 [pretomanid] ... -0.441
CC[C@@H](CO)NCCN[C@@H](CC)CO [ethambutol] + NNC(=O)c1ccncc1 [isoniazid] + COc1c(N2C[C@@H]3CCCN[C@@H]3C2)c(F)cc2c(=O)c(C(=O)O)cn(C3CC3)c12 [moxifloxacin] ... -0.315
CC(C)/N=c1\cc2n(-c3ccc(Cl)cc3)c3ccccc3nc-2cc1Nc1ccc(Cl)cc1 [clofazimine] + NNC(=O)c1ccncc1 [isoniazid] + NC(=O)c1cnccn1 [pyrazinamide] ... -0.335
NNC(=O)c1ccncc1 [isoniazid] + COc1c(N2C[C@@H]3CCCN[C@@H]3C2)c(F)cc2c(=O)c(C(=O)O)cn(C3CC3)c12 [moxifloxacin] + O=[N+]([O-])c1cn2c(n1)OC[C@@H](OCc1ccc(OC(F)(F)F)cc1)C2 [pretomanid] ... -0.144
COc1nc2ccc(Br)cc2cc1[C@@H](c1ccccc1)[C@@](O)(CCN(C)C)c1cccc2ccccc12 [bedaquiline] + CC[C@@H](CO)NCCN[C@@H](CC)CO [ethambutol] + O=[N+]([O-])c1cn2c(n1)OC[C@@H](OCc1ccc(OC(F)(F)F)cc1)C2 [pretomanid] ... -0.294

query: Sample CC(C)/N=c1\cc2n(-c3ccc(Cl)cc3)c3ccccc3nc-2cc1Nc1ccc(Cl)cc1 [clofazimine] + CC[C@@H](CO)NCCN[C@@H](CC)CO [ethambutol] + CO[C@H]1/C=C/O[C@@]2(C)Oc3c(C)c(O)c4c(O)c(c(/C=N/N5CCN(C)CC5)c(O)c4c3C2=O)NC(=O)/C(C)=C\C=C\[C@H](C)[C@H](O)[C@@H](C)[C@@H](O)[C@@H](C)[C@H](OC(C)=O)[C@@H]1C [rifampicin] — what was its GRinf?
result: -0.277

query: Which GRinf value is on record for COc1nc2ccc(Br)cc2cc1[C@@H](c1ccccc1)[C@@](O)(CCN(C)C)c1cccc2ccccc12 [bedaquiline] + NC(=O)c1cnccn1 [pyrazinamide] + CO[C@H]1/C=C/O[C@@]2(C)Oc3c(C)c(O)c4c(O)c(c(/C=N/N5CCN(C)CC5)c(O)c4c3C2=O)NC(=O)/C(C)=C\C=C\[C@H](C)[C@H](O)[C@@H](C)[C@@H](O)[C@@H](C)[C@H](OC(C)=O)[C@@H]1C [rifampicin] ?
result: -0.352

query: Could you share which GRinf value was measured for CC(C)/N=c1\cc2n(-c3ccc(Cl)cc3)c3ccccc3nc-2cc1Nc1ccc(Cl)cc1 [clofazimine] + COc1c(N2C[C@@H]3CCCN[C@@H]3C2)c(F)cc2c(=O)c(C(=O)O)cn(C3CC3)c12 [moxifloxacin] + NC(=O)c1cnccn1 [pyrazinamide] ?
result: -0.3
